# measured-target: Glutamate receptor 3 (Rattus norvegicus)
# Sequence (P19492 whole entry): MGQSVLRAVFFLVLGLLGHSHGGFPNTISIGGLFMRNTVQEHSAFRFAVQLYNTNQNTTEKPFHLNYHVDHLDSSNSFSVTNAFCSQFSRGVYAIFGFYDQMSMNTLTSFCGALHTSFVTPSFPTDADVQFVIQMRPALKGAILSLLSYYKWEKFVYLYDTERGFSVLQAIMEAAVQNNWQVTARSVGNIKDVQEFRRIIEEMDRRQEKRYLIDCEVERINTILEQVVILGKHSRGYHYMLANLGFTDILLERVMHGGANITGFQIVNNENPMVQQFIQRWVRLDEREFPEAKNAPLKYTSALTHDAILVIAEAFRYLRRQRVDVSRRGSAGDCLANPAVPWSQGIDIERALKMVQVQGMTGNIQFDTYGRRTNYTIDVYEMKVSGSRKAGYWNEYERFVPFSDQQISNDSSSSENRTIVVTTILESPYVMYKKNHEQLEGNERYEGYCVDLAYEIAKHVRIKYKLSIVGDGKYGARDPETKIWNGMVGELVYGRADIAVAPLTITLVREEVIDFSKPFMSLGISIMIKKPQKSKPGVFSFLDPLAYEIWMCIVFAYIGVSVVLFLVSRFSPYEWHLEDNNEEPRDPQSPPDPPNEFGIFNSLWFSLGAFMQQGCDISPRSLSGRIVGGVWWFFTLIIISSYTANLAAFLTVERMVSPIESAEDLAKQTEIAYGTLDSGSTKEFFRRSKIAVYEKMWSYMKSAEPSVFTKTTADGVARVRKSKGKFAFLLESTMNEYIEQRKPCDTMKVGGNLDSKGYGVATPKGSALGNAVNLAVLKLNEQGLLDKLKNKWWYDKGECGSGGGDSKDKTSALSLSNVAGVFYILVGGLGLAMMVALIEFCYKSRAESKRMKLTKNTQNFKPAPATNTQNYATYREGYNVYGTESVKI
measurement-type: Ki (µM)
Express your answer in µM, writing the number without its unit.

Looking up CN[C@H](CC(=O)O)C(=O)O , I found its Ki recorded as 3.9

Data credit: BindingDB's records for PubMed 11160654
